Task for the reader: assign each of the following sequences its reported self-splicing fitness (ln).
assay-method-text: self-splicing fitness, log relative to wild type (ln ratio); higher = more splicing; Tetrahymena group I intron in knt gene, E. coli kanamycin selection, DiMSum; sequences stand for … in CUCUCU…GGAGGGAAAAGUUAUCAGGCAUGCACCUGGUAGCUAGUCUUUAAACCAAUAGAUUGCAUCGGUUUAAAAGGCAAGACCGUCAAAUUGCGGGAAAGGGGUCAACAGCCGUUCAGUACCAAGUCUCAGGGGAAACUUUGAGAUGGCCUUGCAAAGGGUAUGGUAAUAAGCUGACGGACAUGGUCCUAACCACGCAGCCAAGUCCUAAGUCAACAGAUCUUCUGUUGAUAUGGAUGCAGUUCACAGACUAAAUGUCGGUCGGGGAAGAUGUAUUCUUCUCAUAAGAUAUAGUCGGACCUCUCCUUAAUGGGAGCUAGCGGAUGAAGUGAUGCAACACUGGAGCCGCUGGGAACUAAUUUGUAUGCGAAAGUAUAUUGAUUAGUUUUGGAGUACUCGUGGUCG;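 also: selection with 25 µg/mL kanamycin versus none on LB agar overnight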
condition-set: 37 °C
// keep it numeric: no unit symbol after the value

Sample `AAAGAGCAAUAUUACGUAGG` ; self-splicing fitness (ln) observed: -2.76

# self-splicing fitness (ln) of `AUUCAGCAAUAUUACGUGUC` = -2.02

Lookup result for `GACUAGCAAUAUUACGAAAU` ; measured self-splicing fitness (ln): 0.651

For reference, reported self-splicing fitness (ln) for `AGUGAGCAAUAUUACGCAGU` stands at -0.67

sequence `GCAAAGCAAUAUUACGUUCG` , self-splicing fitness (ln) observed: -0.192

Input `CCGUAGCAAUAUUACGCAUU` . Output self-splicing fitness (ln): -2.9

The reported self-splicing fitness (ln) of the sequence `GUAGAGCAAUAUUACGUUGC` was -3.11

What the record says about `UGCAAGCAAUAUUACGAGUG` : self-splicing fitness (ln) is -0.498

In plain terms, `UAGAAGCAAUAUUACGUGAG` has a documented self-splicing fitness (ln) of -0.716

self-splicing fitness (ln) in this record for `UGAGAGCAAUAUUACGAAAC` : -1.1

Kindly note the recorded self-splicing fitness (ln) for `AGGGAGCAAUAUUACGGGGG` , which is -3.03

Entry `CUGAAGCAAUAUUACGUAUC` ; self-splicing fitness (ln) = -1.78

Per the record, `GGGCAGCAAUAUUACGCCAA` has self-splicing fitness (ln) of -0.176

Query `GAAUAGCAAUAUUACGUGAU` yields self-splicing fitness (ln) of -1.27

Measured self-splicing fitness (ln) of `GACCAGCAAUAUUACGUUAU` : -0.147

So, `CUCCAGCAAUAUUACGCAAG` ? Its self-splicing fitness (ln) was -1.41

sequence `AAUUAGCAAUAUUACGAUAC` , self-splicing fitness (ln) observed: -0.477

self-splicing fitness (ln) for `AAAUAGCAAUAUUACGUCCU` is 0.319

Sample `ACCAAGCAAUAUUACGCGGU` ; self-splicing fitness (ln) observed: -2.84

Form field self-splicing fitness (ln), entry `CAUAAGCAAUAUUACGAGCU` : -2.76

Input `CUGCAGCAAUAUUACGUAUU` . Output self-splicing fitness (ln): -3.51

Per the record, `AUCUAGCAAUAUUACGGCUU` has self-splicing fitness (ln) of 0.305

Field self-splicing fitness (ln) (entry `CUAGAGCAAUAUUACGUGGU` ) reads -3.52

Field self-splicing fitness (ln) (entry `CCCGAGCAAUAUUACGCGUA` ) reads -2.05

The sequence `AACGAGCAAUAUUACGACCU` showed self-splicing fitness (ln) equal to -0.178

Kindly note the recorded self-splicing fitness (ln) for `CACCAGCAAUAUUACGAACU` , which is -2.05

Note to self: self-splicing fitness (ln) recorded for `AACCAGCAAUAUUACGGGUC` was -2.68

For record `ACCUAGCAAUAUUACGUAAA` the listed self-splicing fitness (ln) is -1.47

Query `ACUGAGCAAUAUUACGGGGA` yields self-splicing fitness (ln) of -1.92

// field: self-splicing fitness (ln); key: `UAAAAGCAAUAUUACGGCUU` ; value = -0.468

The sequence listed as `CGUCAGCAAUAUUACGUCGC` has a reported self-splicing fitness (ln) of -1.88

Per the records, this sequence ( `ACAAAGCAAUAUUACGUGGU` ) has self-splicing fitness (ln) equal to -2.99

Form field self-splicing fitness (ln), entry `CUUGAGCAAUAUUACGAUGC` : -2.5

Entry `UGAUAGCAAUAUUACGUGCA` , self-splicing fitness (ln) reported as 0.164

For `UGAUAGCAAUAUUACGAGGG` the sequence record lists self-splicing fitness (ln) as -2.38

`CCUUAGCAAUAUUACGUUAA` has a reported self-splicing fitness (ln) of -2.71

For `UGCAAGCAAUAUUACGGUUU` the sequence record lists self-splicing fitness (ln) as -1.28

The sequence `UCUCAGCAAUAUUACGUAAU` showed self-splicing fitness (ln) equal to -2.28

Given item `AGAAAGCAAUAUUACGCUUC` , the value recorded as its self-splicing fitness (ln) is -2.22

Quick note, self-splicing fitness (ln) for `UCUCAGCAAUAUUACGAUGA` landed at -0.477

So for `CGCGAGCAAUAUUACGCGAU` , the logged self-splicing fitness (ln) turned out to be -3.09

In plain terms, `UAUCAGCAAUAUUACGGAUC` has a documented self-splicing fitness (ln) of -0.265

Looking up `GAAAAGCAAUAUUACGAACU` , I found its self-splicing fitness (ln) recorded as 0.532

Looking up `UCGCAGCAAUAUUACGACAU` , I found its self-splicing fitness (ln) recorded as -2.56

For this sequence ( `UUUCAGCAAUAUUACGACAU` ), measured self-splicing fitness (ln) is -0.565

The measured self-splicing fitness (ln) associated with `GCUCAGCAAUAUUACGUCCC` reads 0.272

So, `UUCAAGCAAUAUUACGUGAC` ? Its self-splicing fitness (ln) was -2.69

Record `UCAUAGCAAUAUUACGGACU` , field self-splicing fitness (ln): -3.18

Summary for this sequence, `CUCCAGCAAUAUUACGUACA` : self-splicing fitness (ln) is -2.08

// self-splicing fitness (ln) value for `CAGUAGCAAUAUUACGGCGG` : -0.627

Per the records, this sequence ( `UCGUAGCAAUAUUACGUCGU` ) has self-splicing fitness (ln) equal to -1.25

Lab note: measured self-splicing fitness (ln) of `UACUAGCAAUAUUACGACCG` was 0.287

The sequence identified as `CAGGAGCAAUAUUACGUCUC` registered its self-splicing fitness (ln) at -3.07

self-splicing fitness (ln) in this record for `UUUCAGCAAUAUUACGUACG` : -0.18

For reference, reported self-splicing fitness (ln) for `ACUGAGCAAUAUUACGCUCA` stands at -1.87

Recorded self-splicing fitness (ln) (sequence `UGACAGCAAUAUUACGAAAG` ): -2.15

Form: sequence = `CGCUAGCAAUAUUACGGAGC` ; self-splicing fitness (ln) = -1.84

The sequence `GCGCAGCAAUAUUACGCUAU` showed self-splicing fitness (ln) equal to -0.406

Per the record, `AGUCAGCAAUAUUACGAGUC` has self-splicing fitness (ln) of -1.09

Measured self-splicing fitness (ln) of `UGGCAGCAAUAUUACGCGAG` : -0.954

In plain terms, `GUUCAGCAAUAUUACGGGUG` has a documented self-splicing fitness (ln) of -0.763

Per the record, `UCCUAGCAAUAUUACGUAUU` has self-splicing fitness (ln) of -2.48

// self-splicing fitness (ln) lookup, sequence = `CCCCAGCAAUAUUACGGCGU` , result: -1.81

// field: self-splicing fitness (ln); key: `GCGCAGCAAUAUUACGGAAU` ; value = -0.337

The value of self-splicing fitness (ln) measured for the sequence `ACAUAGCAAUAUUACGAUAG` turned out to be -1.36

Entry `CGGUAGCAAUAUUACGCCAC` — recorded self-splicing fitness (ln) = -2.03

sequence `CACAAGCAAUAUUACGUACC` , self-splicing fitness (ln) observed: -1.36
